# TEST TARGET: PAD4 (Homo sapiens, UniProt Q9UM07)
# Sequence (Q9UM07 whole entry): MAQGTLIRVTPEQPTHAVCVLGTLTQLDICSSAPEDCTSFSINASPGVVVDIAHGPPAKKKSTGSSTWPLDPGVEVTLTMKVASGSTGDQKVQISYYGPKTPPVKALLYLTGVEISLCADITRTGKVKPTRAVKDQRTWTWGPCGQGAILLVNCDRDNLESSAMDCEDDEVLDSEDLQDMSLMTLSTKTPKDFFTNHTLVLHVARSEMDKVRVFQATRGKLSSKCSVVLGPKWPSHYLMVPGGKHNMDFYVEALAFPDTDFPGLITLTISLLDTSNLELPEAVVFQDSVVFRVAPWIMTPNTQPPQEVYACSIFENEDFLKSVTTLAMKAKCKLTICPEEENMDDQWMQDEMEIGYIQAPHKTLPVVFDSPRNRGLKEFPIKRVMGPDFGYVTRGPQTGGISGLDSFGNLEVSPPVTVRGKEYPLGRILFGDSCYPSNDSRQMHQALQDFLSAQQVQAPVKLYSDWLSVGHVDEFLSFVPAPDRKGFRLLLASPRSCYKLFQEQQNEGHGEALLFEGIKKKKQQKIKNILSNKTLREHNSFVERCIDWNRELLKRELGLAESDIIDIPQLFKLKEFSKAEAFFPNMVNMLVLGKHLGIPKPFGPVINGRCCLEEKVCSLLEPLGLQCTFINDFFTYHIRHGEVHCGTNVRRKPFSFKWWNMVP
# PROTOCOL NOTES: PAD4 FP binding assay
# MEASUREMENT CONTEXT: PAD4 FP Binding Assay IC50, 0 mM Ca, 0 mM Ca; 10 nM GSK215; mean of replicates
METRIC NAME: pIC50
Scale explanation: pIC50 corresponds to minus log10 of a concentration expressed in moles per litre.

Give recorded pIC50. CCn1c(-c2nc3cc(C(=O)N4CCC[C@@H](N)C4)cc(OC)c3n2C)cc2cccnc21 [GSK199] 6.70

This collection of values is drawn from paper PMC4397581.
